# Test system: NCI-H1581
# procedure_text: Antiproliferative activity against human NCI-H1581 cells assessed as inhibition of cell growth at 10 uM incubated for 48 hrs by MTT assay relative to control
# Format: functional
# assay_conditions: NCI-H1581, 48 h
measurement_label: inhibition at 10 µM (%)
Write the value in % as a bare number.

Query: Given CCc1ccc(Nc2cc(NC(=O)Nc3c(Cl)cccc3Cl)ncn2)cc1 , state its recorded inhibition at 10 µM.
Result: 38.1

Query: Given COc1cc(NC(=O)Nc2cc(Nc3cc(Br)ccc3OC)ncn2)cc(OC)c1 , state its recorded inhibition at 10 µM.
Result: 23.1

Query: Given COc1cc(NC(=O)Nc2cc(Nc3ccc(OC)c(C)c3)ncn2)cc(OC)c1 , state its recorded inhibition at 10 µM.
Result: 19.7

Query: Given COc1cc(NC(=O)Nc2cc(Nc3cc(I)ccc3OC)ncn2)cc(OC)c1 , state its recorded inhibition at 10 µM.
Result: 59

# ---- query compound ----
Query: Given CCc1ccc(Nc2cc(NC(=O)Nc3cc(OC)cc(OC)c3)ncn2)cc1 , state its recorded inhibition at 10 µM.
Result: 32.7

---

Here the recorded inhibition is given for each entry.
# system_name: UniProt P00533
# procedure_text: Inhibition of N-terminal GST-tagged human EGFR (d746-750AA) expressed in baculovirus at 10 uM using FAM-labelled peptide as substrate pre-incubated for 10 mins followed by substrate addition by mobility shift assay relative to control
Write the value in % as a bare number.

Query: Given COc1cc(NC(=O)Nc2cc(Nc3ccc(C(C)(C)C)cc3)ncn2)cc(OC)c1 , state its recorded inhibition.
Result: -0.2

Further cases:
Query: Given COc1cc(NC(=O)Nc2cc(Nc3cc(OC)cc(C(F)(F)F)c3)ncn2)cc(OC)c1 , state its recorded inhibition.
Result: 27.5

Query: Given COc1cc(NC(=O)Nc2cc(Nc3ccc(C)c(F)c3)ncn2)cc(OC)c1 , state its recorded inhibition.
Result: 51.5

Query: Given COc1ccc(Br)cc1Nc1cc(NC(=O)Nc2c(Cl)cccc2Cl)ncn1 , state its recorded inhibition.
Result: 93.5

Query: Given COc1cc(NC(=O)Nc2cc(Nc3ccc(F)c(Cl)c3)ncn2)cc(OC)c1 , state its recorded inhibition.
Result: 52.8

Query: Given COc1ccc(C(F)(F)F)cc1Nc1cc(NC(=O)Nc2c(Cl)cccc2Cl)ncn1 , state its recorded inhibition.
Result: 73

Query: Given CC(C)(C)c1ccc(Nc2cc(NC(=O)Nc3c(Cl)cccc3Cl)ncn2)cc1 , state its recorded inhibition.
Result: 63.2

Query: Given COc1ccc(OC)c(Nc2cc(NC(=O)Nc3c(Cl)cccc3Cl)ncn2)c1 , state its recorded inhibition.
Result: 95.8

---

Here the recorded inhibition at 10 µM is given for each entry.
# Tested on: NCI-H226
# procedure_text: Antiproliferative activity against human NCI-H226 cells assessed as inhibition of cell growth at 10 uM incubated for 48 hrs by MTT assay relative to control
# Type: functional
# assay_conditions: NCI-H226, 48 h
Your answer should be a number followed by the unit of measure.

Query: Given COc1cc(NC(=O)Nc2cc(Nc3ccc(OC)c(C)c3)ncn2)cc(OC)c1 , state its recorded inhibition at 10 µM.
Result: 39.7%

Query: Given COc1cc(NC(=O)Nc2cc(Nc3ccc(Br)cc3OC)ncn2)cc(OC)c1 , state its recorded inhibition at 10 µM.
Result: 25.7%

Query: Given COc1cc(NC(=O)Nc2cc(Nc3cc(I)ccc3OC)ncn2)cc(OC)c1 , state its recorded inhibition at 10 µM.
Result: 56.7%

Query: Given COc1cc(Br)ccc1Nc1cc(NC(=O)Nc2c(Cl)cccc2Cl)ncn1 , state its recorded inhibition at 10 µM.
Result: 43%

Query: Given COc1ccc(OC)c(Nc2cc(NC(=O)Nc3c(Cl)cccc3Cl)ncn2)c1 , state its recorded inhibition at 10 µM.
Result: 81.7%

Query: Given COc1cc(NC(=O)Nc2cc(Nc3cc(OC)ccc3OC)ncn2)cc(OC)c1 , state its recorded inhibition at 10 µM.
Result: 41.1%

Further cases:
Query: Given CCN1CCN(c2ccc(Nc3cc(N(C)C(=O)Nc4c(Cl)c(OC)cc(OC)c4Cl)ncn3)cc2)CC1 , state its recorded inhibition at 10 µM.
Result: 67.3%

Query: Given COc1ccc(F)cc1Nc1cc(NC(=O)Nc2c(Cl)cccc2Cl)ncn1 , state its recorded inhibition at 10 µM.
Result: 31.3%

Query: Given CC(C)(C)c1cccc(Nc2cc(NC(=O)Nc3c(Cl)cccc3Cl)ncn2)c1 , state its recorded inhibition at 10 µM.
Result: 36.5%

Query: Given COc1cc(NC(=O)Nc2cc(Nc3cc(Br)ccc3OC)ncn2)cc(OC)c1 , state its recorded inhibition at 10 µM.
Result: 42.7%

Query: Given COc1cc(NC(=O)Nc2cc(Nc3cc(OC)cc(C(F)(F)F)c3)ncn2)cc(OC)c1 , state its recorded inhibition at 10 µM.
Result: 56%

---

# system_name: Epidermal growth factor receptor (Homo sapiens)
# Sequence (P00533 whole entry): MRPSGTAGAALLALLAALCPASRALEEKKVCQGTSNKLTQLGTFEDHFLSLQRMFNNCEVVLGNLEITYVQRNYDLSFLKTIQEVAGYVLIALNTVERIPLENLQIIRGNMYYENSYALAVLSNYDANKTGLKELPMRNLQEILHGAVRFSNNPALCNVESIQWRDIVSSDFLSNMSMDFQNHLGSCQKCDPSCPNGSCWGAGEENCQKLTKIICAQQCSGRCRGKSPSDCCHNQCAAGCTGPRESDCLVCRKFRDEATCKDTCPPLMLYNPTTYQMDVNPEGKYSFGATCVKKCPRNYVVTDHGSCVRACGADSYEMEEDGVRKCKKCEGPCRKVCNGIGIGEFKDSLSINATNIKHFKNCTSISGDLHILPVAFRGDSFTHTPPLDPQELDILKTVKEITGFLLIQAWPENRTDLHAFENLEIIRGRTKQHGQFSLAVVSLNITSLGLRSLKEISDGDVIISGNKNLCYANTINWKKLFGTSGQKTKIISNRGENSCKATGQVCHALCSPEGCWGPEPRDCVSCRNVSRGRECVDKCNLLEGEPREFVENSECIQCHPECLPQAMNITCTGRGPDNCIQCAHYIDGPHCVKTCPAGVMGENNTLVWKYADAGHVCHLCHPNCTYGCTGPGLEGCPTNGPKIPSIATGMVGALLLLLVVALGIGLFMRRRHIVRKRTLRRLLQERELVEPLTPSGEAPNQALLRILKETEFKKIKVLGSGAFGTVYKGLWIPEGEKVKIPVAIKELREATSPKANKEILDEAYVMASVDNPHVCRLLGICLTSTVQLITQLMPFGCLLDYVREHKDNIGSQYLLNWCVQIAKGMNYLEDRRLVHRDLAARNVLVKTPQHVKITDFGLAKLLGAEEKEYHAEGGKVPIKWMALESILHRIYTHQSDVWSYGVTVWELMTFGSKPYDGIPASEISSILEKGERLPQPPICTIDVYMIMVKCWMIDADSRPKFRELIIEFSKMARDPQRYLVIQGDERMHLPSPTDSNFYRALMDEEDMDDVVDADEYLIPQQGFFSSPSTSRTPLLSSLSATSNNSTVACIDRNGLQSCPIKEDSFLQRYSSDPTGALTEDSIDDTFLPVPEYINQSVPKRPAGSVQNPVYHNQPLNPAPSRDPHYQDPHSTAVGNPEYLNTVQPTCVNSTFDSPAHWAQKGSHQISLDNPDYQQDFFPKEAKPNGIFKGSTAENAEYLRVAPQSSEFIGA
# procedure_text: Inhibition of N-terminal GST-tagged human EGFR (d746-750AA) expressed in baculovirus at 10 uM using FAM-labelled peptide as substrate pre-incubated for 10 mins followed by substrate addition by mobility shift assay relative to control
measurement_label: inhibition (%)
Write the value in % as a bare number.

// worked examples, inhibition included
Query: Given Cc1ccc(Nc2cc(NC(=O)Nc3c(Cl)cccc3Cl)ncn2)cc1F , state its recorded inhibition.
Result: 87.1

Query: Given COc1ccc(Nc2cc(NC(=O)Nc3c(Cl)cccc3Cl)ncn2)cc1C , state its recorded inhibition.
Result: 67.4

Further cases:
Query: Given Cc1cc(F)cc(Nc2cc(NC(=O)Nc3c(Cl)cccc3Cl)ncn2)c1 , state its recorded inhibition.
Result: 89.7

Query: Given COc1ccc(F)cc1Nc1cc(NC(=O)Nc2c(Cl)cccc2Cl)ncn1 , state its recorded inhibition.
Result: 48.7

Query: Given COc1cc(NC(=O)Nc2cc(Nc3cc(C)cc(F)c3)ncn2)cc(OC)c1 , state its recorded inhibition.
Result: 16.7

Query: Given COc1cc(NC(=O)Nc2cc(Nc3cccc(C(C)(C)C)c3)ncn2)cc(OC)c1 , state its recorded inhibition.
Result: 10.4

Query: Given COc1cc(NC(=O)Nc2cc(Nc3ccc(OC)c(C)c3)ncn2)cc(OC)c1 , state its recorded inhibition.
Result: 54.9

Query: Given COc1cc(NC(=O)Nc2cc(Nc3cc(Br)ccc3OC)ncn2)cc(OC)c1 , state its recorded inhibition.
Result: 45.2

Query: Given CCc1ccc(Nc2cc(NC(=O)Nc3cc(OC)cc(OC)c3)ncn2)cc1 , state its recorded inhibition.
Result: 28.1

Query: Given COc1cc(NC(=O)Nc2cc(Nc3ccc(OC)c(I)c3)ncn2)cc(OC)c1 , state its recorded inhibition.
Result: 43.6

---

# Test system: PC-9
# procedure_text: Antiproliferative activity against human PC9 cells assessed as inhibition of cell growth at 10 uM incubated for 48 hrs by MTT assay relative to control
# Type: functional
# assay_conditions: PC-9, 48 h
measurement_label: inhibition at 10 µM
Your answer should be a number followed by the unit of measure.

// worked examples, inhibition at 10 µM included
Query: Given COc1cc(NC(=O)Nc2cc(Nc3cc(OC)ccc3OC)ncn2)cc(OC)c1 , state its recorded inhibition at 10 µM.
Result: 59.5%

Query: Given COc1cc(NC(=O)Nc2cc(Nc3cc(C(F)(F)F)ccc3OC)ncn2)cc(OC)c1 , state its recorded inhibition at 10 µM.
Result: 81.1%

Query: Given COc1cc(NC(=O)Nc2cc(Nc3cc(I)ccc3OC)ncn2)cc(OC)c1 , state its recorded inhibition at 10 µM.
Result: 91%

Query: Given COc1cc(NC(=O)Nc2cc(Nc3ccc(C)c(F)c3)ncn2)cc(OC)c1 , state its recorded inhibition at 10 µM.
Result: 77.5%

Query: Given O=C(Nc1cc(Nc2ccc(F)c(Cl)c2)ncn1)Nc1c(Cl)cccc1Cl , state its recorded inhibition at 10 µM.
Result: 91.1%

Query: Given COc1cc(NC(=O)Nc2cc(Nc3ccc(F)c(Cl)c3)ncn2)cc(OC)c1 , state its recorded inhibition at 10 µM.
Result: 77.5%

Further cases:
Query: Given COc1cc(Nc2cc(NC(=O)Nc3c(Cl)cccc3Cl)ncn2)cc(OC)c1 , state its recorded inhibition at 10 µM.
Result: 90%

Query: Given CCc1ccc(Nc2cc(NC(=O)Nc3cc(OC)cc(OC)c3)ncn2)cc1 , state its recorded inhibition at 10 µM.
Result: 78%

Query: Given COc1cc(NC(=O)Nc2cc(Nc3cccc(C(C)(C)C)c3)ncn2)cc(OC)c1 , state its recorded inhibition at 10 µM.
Result: 68%

Query: Given COc1cc(NC(=O)Nc2cc(Nc3ccc(C(C)(C)C)cc3)ncn2)cc(OC)c1 , state its recorded inhibition at 10 µM.
Result: 74.1%

---

# procedure_text: AUC (0 to 24 hrs) in Sprague-Dawley rat at 30 mg/kg, po measured upto 24 hrs by UPLC-MS/MS
# Type: ADME, organism-based
# Design: time < 24 hr, dose 30 mg/kg, route oral
# assay_conditions: in vivo
measurement_label: AUC(0-t) at 24 h
Your answer should be a number followed by the unit of measure.

Query: Given COc1ccc(OC)c(Nc2cc(NC(=O)Nc3c(Cl)cccc3Cl)ncn2)c1 , state its recorded AUC(0-t) at 24 h.
Result: 9690 ng·h/mL
